# System: HCC-2998 colon
# experiment: NCI tumour cell line growth inhibition, 48 h
Listed next: entries and their corresponding log10 TGI.
attribute measured: log10 TGI (log10 of the value in µM)

- compound: "Nc1ccccc1C#Cc1ccccc1C#Cc1ccccc1N"
  attribute measured: "log10 TGI"
  quantitative readout: 1.61
- compound: "COc1cccc(C2=NN(C(C)=O)C(c3cc(OC)c(OC)c(OC)c3)C2)c1 (centres undefined)"
  attribute measured: "log10 TGI"
  quantitative readout: 1.20
- compound: "CCOC(=O)c1c(Nc2ccccc2)sc2cccnc12"
  attribute measured: "log10 TGI"
  quantitative readout: 1.89
- compound: "CCc1ccc(/C(C#N)=C/C=C/c2ccccc2)cc1"
  attribute measured: "log10 TGI"
  quantitative readout: 1.83
- compound: "O=C1OC(C2Cc3cc4c(cc3C2=O)CCC4)c2ccccc21 (centres undefined)"
  attribute measured: "log10 TGI"
  quantitative readout: 1.99
- compound: "C[C@]1(O)CC(=O)c2c(c(-c3ccc4cc5c(c(O)c4c3O)C(=O)C[C@@](C)(O)C5)c3cccc(O)c3c2O)C1"
  attribute measured: "log10 TGI"
  quantitative readout: 1.21
- compound: "Oc1ccc(Cl)cc1Cc1cc(Cl)cc(Cc2cc(Cl)ccc2O)c1O"
  attribute measured: "log10 TGI"
  quantitative readout: 0.45
- compound: "CCN(CC)CCC(=O)c1ccc(Oc2ccc(C)cc2)cc1"
  attribute measured: "log10 TGI"
  quantitative readout: 1.56
